// reported Ki per item
molecular target: human progesterone receptor (Homo sapiens, UniProt P06401); experiment: Progesterone receptor binding assay, human PR (CEREP); settings: 3H-R5020 as ligand, MCF7 cells as source of PR; read-out: Human PR binding (pKi) (converted)
Sequence (P06401 679-933 limits assumed): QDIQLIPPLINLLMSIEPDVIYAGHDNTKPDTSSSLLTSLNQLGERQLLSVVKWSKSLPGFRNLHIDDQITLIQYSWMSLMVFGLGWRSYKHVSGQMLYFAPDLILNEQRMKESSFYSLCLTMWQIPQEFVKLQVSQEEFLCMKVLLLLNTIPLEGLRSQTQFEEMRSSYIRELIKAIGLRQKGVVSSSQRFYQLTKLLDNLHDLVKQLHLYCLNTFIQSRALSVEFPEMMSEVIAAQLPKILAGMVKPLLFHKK

Example molecules with recorded Ki:
chemical_string=CC(=O)[C@H]1CC[C@H]2[C@@H]3C=CC4=CC(=O)CC[C@@]4(C)[C@@H]3[C@@H](OC(=O)Nc3cccc(C#N)c3)C[C@]12C value="≥ 631 nM"
chemical_string=CC(=O)[C@H]1CC[C@H]2[C@@H]3C=CC4=CC(=O)CC[C@@]4(C)[C@@H]3[C@@H](OC(=O)NCc3cccc(F)c3)C[C@]12C value="398 nM"

Could you now look at the following molecule, please?
Enquiry: Request: Ki, test system human progesterone receptor (Homo sapiens, UniProt P06401), entry `CC(=O)[C@H]1CC[C@H]2[C@@H]3C=CC4=CC(=O)CC[C@@]4(C)[C@@H]3[C@@H](OC(=O)NCc3ccc(S(C)(=O)=O)cc3)C[C@]12C`
Return: ≥ 631 nM
